// provenance: the supplement of paper PMC10065799

- STUDY_TARGET: Jak2 (UniProt O60674)
- Sequence (O60674 whole entry, looked up): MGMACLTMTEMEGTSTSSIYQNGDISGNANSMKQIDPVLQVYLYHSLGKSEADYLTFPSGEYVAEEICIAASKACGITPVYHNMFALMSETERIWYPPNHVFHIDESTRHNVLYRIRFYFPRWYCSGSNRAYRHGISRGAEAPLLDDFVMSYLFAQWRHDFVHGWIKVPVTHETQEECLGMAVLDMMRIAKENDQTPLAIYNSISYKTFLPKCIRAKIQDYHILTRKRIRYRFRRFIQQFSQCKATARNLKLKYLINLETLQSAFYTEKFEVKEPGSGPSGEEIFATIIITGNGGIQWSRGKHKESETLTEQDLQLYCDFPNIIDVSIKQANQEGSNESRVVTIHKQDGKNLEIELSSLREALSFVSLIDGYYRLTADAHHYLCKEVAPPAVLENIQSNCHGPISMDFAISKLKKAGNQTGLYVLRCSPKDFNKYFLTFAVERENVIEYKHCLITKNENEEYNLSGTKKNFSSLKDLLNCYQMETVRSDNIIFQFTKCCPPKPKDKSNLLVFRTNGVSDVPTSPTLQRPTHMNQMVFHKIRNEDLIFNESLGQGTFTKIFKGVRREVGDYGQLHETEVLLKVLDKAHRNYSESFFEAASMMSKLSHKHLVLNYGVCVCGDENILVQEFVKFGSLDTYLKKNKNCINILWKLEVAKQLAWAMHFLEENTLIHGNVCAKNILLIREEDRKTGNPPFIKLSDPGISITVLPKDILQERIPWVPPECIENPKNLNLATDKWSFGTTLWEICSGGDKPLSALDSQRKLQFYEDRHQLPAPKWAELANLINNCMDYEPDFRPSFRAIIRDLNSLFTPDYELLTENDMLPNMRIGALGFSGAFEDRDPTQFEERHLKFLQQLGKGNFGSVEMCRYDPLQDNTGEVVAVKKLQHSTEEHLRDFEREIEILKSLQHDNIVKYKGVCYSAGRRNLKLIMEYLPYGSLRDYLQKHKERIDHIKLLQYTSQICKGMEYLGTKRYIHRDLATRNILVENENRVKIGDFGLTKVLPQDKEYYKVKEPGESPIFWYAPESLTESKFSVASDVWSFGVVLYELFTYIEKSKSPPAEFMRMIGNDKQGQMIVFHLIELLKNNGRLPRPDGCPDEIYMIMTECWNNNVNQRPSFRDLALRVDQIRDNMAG
- ASSAY_METHOD_TEXT: phosphorylation enrichment, bacterial display (enrichment ratio); higher = better substrate or ligand; peptides without Tyr show the background
PROPERTY_LABEL: phosphorylation enrichment
Answer with the value's number alone.

SEQUENCE_CONTENT	NUMBER
QRNEEYCLLDS [ITK_Y198_R193Q]	1.85
EYITRYIDSLK [PSMA7_Y110_A112D]	0.677

Below: the item to evaluate.
[in] Consider the sequence shown here: INITIYGKTFH [EFHC1_Y177_R182H] What is its recorded phosphorylation enrichment?
[out] 1.08

* * *

- STUDY_TARGET: FGFR1 (UniProt P11362)
- Sequence (P11362 whole entry, looked up): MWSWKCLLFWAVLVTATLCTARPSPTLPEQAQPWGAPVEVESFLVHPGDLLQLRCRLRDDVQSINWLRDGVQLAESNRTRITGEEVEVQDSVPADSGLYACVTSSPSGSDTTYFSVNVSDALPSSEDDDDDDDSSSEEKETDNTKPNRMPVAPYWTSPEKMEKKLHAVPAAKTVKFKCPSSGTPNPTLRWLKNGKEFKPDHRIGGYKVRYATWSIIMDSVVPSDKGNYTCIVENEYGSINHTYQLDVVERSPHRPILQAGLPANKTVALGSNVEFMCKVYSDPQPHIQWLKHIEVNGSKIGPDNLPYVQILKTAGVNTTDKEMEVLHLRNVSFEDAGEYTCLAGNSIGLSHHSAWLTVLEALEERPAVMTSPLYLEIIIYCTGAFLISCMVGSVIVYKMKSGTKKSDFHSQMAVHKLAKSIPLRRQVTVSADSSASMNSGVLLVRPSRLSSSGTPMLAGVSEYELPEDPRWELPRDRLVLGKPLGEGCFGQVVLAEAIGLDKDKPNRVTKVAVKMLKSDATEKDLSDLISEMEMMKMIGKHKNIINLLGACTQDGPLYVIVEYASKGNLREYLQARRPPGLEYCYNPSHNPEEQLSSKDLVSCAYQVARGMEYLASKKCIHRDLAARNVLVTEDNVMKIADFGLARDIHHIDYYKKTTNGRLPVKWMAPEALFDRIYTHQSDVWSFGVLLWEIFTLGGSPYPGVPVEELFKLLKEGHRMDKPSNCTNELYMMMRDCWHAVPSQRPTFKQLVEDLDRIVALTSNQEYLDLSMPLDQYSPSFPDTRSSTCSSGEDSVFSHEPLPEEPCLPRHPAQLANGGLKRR
- ASSAY_METHOD_TEXT: phosphorylation enrichment, bacterial display (enrichment ratio); higher = better substrate or ligand; peptides without Tyr show the background
PROPERTY_LABEL: phosphorylation enrichment

Here is how some sequences turned out for phosphorylation enrichment.
SEQUENCE_CONTENT	PROPERTY_LABEL	RESULT
MFNPMYALFRT [HUWE1_Y4078]	phosphorylation enrichment	0.545
QMIETYFDFRL [NSMF_Y506]	phosphorylation enrichment	7.65
IHSGIYFKPES [L2HGDH_Y102_YF]	phosphorylation enrichment	0.702
FGYPGYQSKHY [TIMP3_Y177]	phosphorylation enrichment	0.349
CYSSEYHYVGG [CTSC_Y345_Y340C]	phosphorylation enrichment	13

[in] Consider the sequence shown here: VATRWYRSPEP [CDKL5_Y177_L182P] What is its recorded phosphorylation enrichment?
[out] 0.482

* * *

- STUDY_TARGET: MERTK (UniProt Q12866)
- Sequence (Q12866 whole entry, looked up): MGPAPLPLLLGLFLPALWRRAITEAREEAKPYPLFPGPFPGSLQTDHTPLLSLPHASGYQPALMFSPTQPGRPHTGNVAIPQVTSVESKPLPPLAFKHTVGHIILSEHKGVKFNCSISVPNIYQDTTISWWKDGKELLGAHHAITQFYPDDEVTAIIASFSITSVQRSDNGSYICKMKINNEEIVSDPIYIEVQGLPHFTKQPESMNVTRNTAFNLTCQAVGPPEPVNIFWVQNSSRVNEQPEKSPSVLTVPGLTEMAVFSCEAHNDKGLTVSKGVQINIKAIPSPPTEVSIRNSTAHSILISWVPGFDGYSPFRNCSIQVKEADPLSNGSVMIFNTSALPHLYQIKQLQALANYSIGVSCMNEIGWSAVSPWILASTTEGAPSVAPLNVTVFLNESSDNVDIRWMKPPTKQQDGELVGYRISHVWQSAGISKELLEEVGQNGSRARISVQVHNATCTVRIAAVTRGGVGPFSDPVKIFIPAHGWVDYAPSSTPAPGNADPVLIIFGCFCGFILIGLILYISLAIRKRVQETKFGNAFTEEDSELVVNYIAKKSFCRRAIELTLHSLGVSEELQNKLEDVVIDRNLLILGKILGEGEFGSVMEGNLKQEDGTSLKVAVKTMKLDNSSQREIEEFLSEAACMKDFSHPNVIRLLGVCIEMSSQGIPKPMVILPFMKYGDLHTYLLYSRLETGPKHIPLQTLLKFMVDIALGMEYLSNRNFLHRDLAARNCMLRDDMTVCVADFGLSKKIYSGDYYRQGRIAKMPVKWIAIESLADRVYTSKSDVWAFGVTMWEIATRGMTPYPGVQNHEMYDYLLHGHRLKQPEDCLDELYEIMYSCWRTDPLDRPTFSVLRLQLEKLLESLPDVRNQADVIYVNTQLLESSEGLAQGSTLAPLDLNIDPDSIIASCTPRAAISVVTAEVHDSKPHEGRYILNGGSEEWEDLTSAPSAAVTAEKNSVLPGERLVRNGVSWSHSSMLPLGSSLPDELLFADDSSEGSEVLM
- ASSAY_METHOD_TEXT: phosphorylation enrichment, bacterial display (enrichment ratio); higher = better substrate or ligand; peptides without Tyr show the background
// phosphorylation enrichment lookup, one value per entry
Answer with the value's number alone.

SEQUENCE_CONTENT	phosphorylation enrichment
VEDHYYEGGIG [TKT_Y564]	0.524

[in] Consider the sequence shown here: QWPGPYDRPGA [HNRNPH2_Y210_R206W] What is its recorded phosphorylation enrichment?
[out] 0.541

[in] Consider the sequence shown here: SLEKSYELPDG [ACTA1_Y242] What is its recorded phosphorylation enrichment?
[out] 0.467

[in] Consider the sequence shown here: SFPHEYGSQEG [RBM10_Y48_R46H_YF] What is its recorded phosphorylation enrichment?
[out] 0.459

[in] Consider the sequence shown here: NVGGKYSYLKV [GRM3_Y478] What is its recorded phosphorylation enrichment?
[out] 0.448

[in] Consider the sequence shown here: QKKEEYKMALY [F8_Y1990_R1985Q] What is its recorded phosphorylation enrichment?
[out] 0.693

[in] Consider the sequence shown here: PPEFSYGLQTQ [SRA1_Y35_Q32E] What is its recorded phosphorylation enrichment?
[out] 0.428

[in] Consider the sequence shown here: FAKSVYWENTL [NUP107_Y296_YF] What is its recorded phosphorylation enrichment?
[out] 0.588

[in] Consider the sequence shown here: NVVHEYSSELE [FGB_Y172_N170H] What is its recorded phosphorylation enrichment?
[out] 0.473

[in] Consider the sequence shown here: GHGEEYPVAGA [NOTCH3_Y2221_A2223V] What is its recorded phosphorylation enrichment?
[out] 0.373

[in] Consider the sequence shown here: VVRSLYEDLED [VHL_Y185_I180V] What is its recorded phosphorylation enrichment?
[out] 0.525

* * *

- Tested on: c-Src
- ASSAY_METHOD_TEXT: phosphorylation enrichment, bacterial display (enrichment ratio); higher = better substrate or ligand; peptides without Tyr show the background
// phosphorylation enrichment lookup, one value per entry
Answer with the value's number alone.

SEQUENCE_CONTENT	PROPERTY_LABEL	NUMBER
KTDVRYRSLGG [DYSF_Y1858_H1857R]	phosphorylation enrichment	0.368
LKFAIYFEVRE [LAMA2_Y1258_A1261V_YF]	phosphorylation enrichment	0.831

[in] Consider the sequence shown here: KRIETYFSKNF [PLP1_Y50_L46R_YF] What is its recorded phosphorylation enrichment?
[out] 0.467

[in] Consider the sequence shown here: LPKEQYLYTKE [AFG3L2_Y614] What is its recorded phosphorylation enrichment?
[out] 0.913

[in] Consider the sequence shown here: ANVIRYFPTQA [SLC25A4_Y81] What is its recorded phosphorylation enrichment?
[out] 0.674

[in] Consider the sequence shown here: MGGSVYFSYPD [HIKESHI_Y55] What is its recorded phosphorylation enrichment?
[out] 3.42

[in] Consider the sequence shown here: EEGNPSFSSAR [MCCC2_Y520_Y520S_YF] What is its recorded phosphorylation enrichment?
[out] 0.433

[in] Consider the sequence shown here: TVLEPYTDPFF [ZC3H18_Y367_A368T_YF] What is its recorded phosphorylation enrichment?
[out] 0.514

[in] Consider the sequence shown here: ENRKYYMDLKE [PURA_Y156] What is its recorded phosphorylation enrichment?
[out] 0.331

[in] Consider the sequence shown here: HNLDFYKETTN [FGFR3_Y648_K650E_YF] What is its recorded phosphorylation enrichment?
[out] 1.14

[in] Consider the sequence shown here: EFKKHYGFSLF [ANXA3_Y295_YF] What is its recorded phosphorylation enrichment?
[out] 0.46

[in] Consider the sequence shown here: CLLHCYFSQIR [MCM3AP_Y873] What is its recorded phosphorylation enrichment?
[out] 0.368

[in] Consider the sequence shown here: HGDSAYHSQRH [ERBB3_Y1132_R1127H] What is its recorded phosphorylation enrichment?
[out] 0.824

[in] Consider the sequence shown here: DEDEEYEYMNR [ERBB3_Y1197] What is its recorded phosphorylation enrichment?
[out] 0.54

[in] Consider the sequence shown here: KVDKEYEVRVR [GHR_Y226] What is its recorded phosphorylation enrichment?
[out] 0.41

[in] Consider the sequence shown here: VNTTLYEKFTY [TEK_Y1108] What is its recorded phosphorylation enrichment?
[out] 3.87

[in] Consider the sequence shown here: LVGTPYWMAPE [PAK5_Y608] What is its recorded phosphorylation enrichment?
[out] 2.71

* * *

// SH2 binding enrichment lookup, one value per entry
- STUDY_TARGET: SHP2-C SH2;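 note: peptide library displayed on the E. coli surface as eCPX fusions, selected cells deep-sequenced, score is each peptide's frequency after selection divided by its frequency in the input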
- ASSAY_METHOD_TEXT: SH2 binding enrichment of the phosphorylated peptide, bacterial display (enrichment ratio); higher = better substrate or ligand; peptides without Tyr show the background
Answer with the value's number alone.

Here is how some sequences turned out for SH2 binding enrichment.
SEQUENCE_CONTENT	STUDY_TARGET	PROPERTY_LABEL	NUMBER
NVTRKYSRQIL [MAP3K2_Y463_T464S]	SHP2-C SH2	SH2 binding enrichment	0.607
LIHLHYIRRDY [BBS4_Y43_K46R]	SHP2-C SH2	SH2 binding enrichment	1.17
KPPFSYNALIR [FOXG1_Y186_M191R]	SHP2-C SH2	SH2 binding enrichment	0.956

Below: the item to evaluate.
[in] Lookup: SH2 binding enrichment / SHP2-C SH2 / SPFMLYQFLKQ [RPAP3_Y567_D564Y_YF]
[out] 1.67

* * *

- Tested on: Fer (mouse)
- ASSAY_METHOD_TEXT: phosphorylation enrichment, bacterial display (enrichment ratio); higher = better substrate or ligand; peptides without Tyr show the background
Would you please tag the item yes when its phosphorylation enrichment is 0.5 or above, and no when it is below?

SEQUENCE_CONTENT	ASSIGNED_CATEGORY
AVPSLYASGRT [ACTA1_Y145_L142P]	no
SLEKSYKLPDG [ACTA1_Y242_E243K]	no
RNVLVYDKLNV [ROR2_Y624]	yes
TSAEGYQDVRD [ABLIM1_Y439_P434T]	yes
AFEQQYSPIPK [NOX1_Y373_R378K]	no

[in] Is the recorded value of phosphorylation enrichment equal to or greater than 0.5 for this sequence? HEEDNYIEMIP [NWD2_Y566_L569M]
[out] yes

[in] Is the recorded value of phosphorylation enrichment equal to or greater than 0.5 for this sequence? GINDDHGQLKN [NBN_Y679_Y679H]
[out] no

[in] Is the recorded value of phosphorylation enrichment equal to or greater than 0.5 for this sequence? THQKSYQPGRK [CEFIP_Y210_N208K]
[out] no

* * *

- STUDY_TARGET: MERTK (UniProt Q12866)
- ASSAY_METHOD_TEXT: phosphorylation enrichment, bacterial display (enrichment ratio); higher = better substrate or ligand; peptides without Tyr show the background
Would you please tag the item 1 (yes) when its phosphorylation enrichment is 0.5 or above, and 0 (no) when it is below?

Answered cases to consult:
SEQUENCE_CONTENT	ASSIGNED_CATEGORY
YQCKHYACIRQ [TIMP3_Y182_S179C]	0 (no)
RDSQLYAVDFE [MRPS34_Y34_YF]	1 (yes)
TVFENYVADIE [RHOA_Y42]	1 (yes)
GLRSFYETSKM [MAGED2_Y449_YF]	0 (no)

[in] Is the recorded value of phosphorylation enrichment equal to or greater than 0.5 for this sequence? PSELYYSKIGP [SMG1_Y2254]
[out] 1 (yes)

[in] Is the recorded value of phosphorylation enrichment equal to or greater than 0.5 for this sequence? AEEPIYIIVPA [BMXtide_2014]
[out] 1 (yes)

[in] Is the recorded value of phosphorylation enrichment equal to or greater than 0.5 for this sequence? KKMKCYHVGKV [HARS2_Y151_R150C]
[out] 0 (no)

[in] Is the recorded value of phosphorylation enrichment equal to or greater than 0.5 for this sequence? SHLSAYPALEG [CD5_Y465]
[out] 0 (no)

[in] Is the recorded value of phosphorylation enrichment equal to or greater than 0.5 for this sequence? CTLLPYYSAPV [DGKE_Y269_R273P]
[out] 1 (yes)

[in] Is the recorded value of phosphorylation enrichment equal to or greater than 0.5 for this sequence? `GGGMFYPLDLF`
[out] 0 (no)

[in] Is the recorded value of phosphorylation enrichment equal to or greater than 0.5 for this sequence? KNNSIYVLANI [VNN1_Y134_V136L]
[out] 1 (yes)

[in] Is the recorded value of phosphorylation enrichment equal to or greater than 0.5 for this sequence? AGLEEYSAMRD [HRAS_Y64_Q61L]
[out] 0 (no)

[in] Is the recorded value of phosphorylation enrichment equal to or greater than 0.5 for this sequence? KVPELYEIHKE [BCR_Y554]
[out] 1 (yes)

[in] Is the recorded value of phosphorylation enrichment equal to or greater than 0.5 for this sequence? EEGNPYFSGAR [MCCC2_Y520_S523G_YF]
[out] 0 (no)

[in] Is the recorded value of phosphorylation enrichment equal to or greater than 0.5 for this sequence? SVVVPYEPTEV [TP53_Y220_P223T]
[out] 1 (yes)
